# Tested on: CAKI-1
# assay_summary: GI50, drug alone; higher = less potent
# stated_conditions: treatment: drug alone; 5 days
GI50, drug alone strictly less than 1000 nM = condition met. Otherwise condition not met.

The examples below pair each entry with its known result.
structure_string	label_class
Clc1ccc(C2(c3ccc(-c4cn[nH]c4)cc3)CCNCC2)cc1	condition not met
CCO.N#CC(=C(/N)Sc1ccccc1N)/C(C#N)=C(\N)Sc1ccccc1N	condition not met
FC(F)(F)c1ccc(/C=C/c2nc(COc3ccc(CCCCn4ccnn4)cc3)co2)cc1	condition not met
Oc1ccc(-c2nc(-c3ccc(F)cc3)c(-c3ccncc3)[nH]2)cc1	condition not met
c1cncc(CN2CCC(n3ncc4c(N5CCOCC5)nc(-c5ccc6[nH]ccc6c5)nc43)CC2)c1	condition met

Prompt line: Lab note: GI50, drug alone threshold 1000 nM. Does this compound come in strictly under it? CNC(=O)c1ccccc1Nc1nc(Nc2ccc(N3CCOCC3)cc2OC)ncc1Cl
Response line: condition not met

Prompt line: Lab note: GI50, drug alone threshold 1000 nM. Does this compound come in strictly under it? Cc1n[nH]c2ccc(-c3cncc(OC[C@@H](N)Cc4ccccc4)c3)cc12
Response line: condition not met

Prompt line: Lab note: GI50, drug alone threshold 1000 nM. Does this compound come in strictly under it? CC[C@H](Nc1ncnc2[nH]cnc12)c1nc2cccc(F)c2c(=O)n1-c1ccccc1
Response line: condition not met

Prompt line: Lab note: GI50, drug alone threshold 1000 nM. Does this compound come in strictly under it? OCCn1cc(-c2ccc3c(c2)CC/C3=N\O)c(-c2ccncc2)n1
Response line: condition not met

Prompt line: Lab note: GI50, drug alone threshold 1000 nM. Does this compound come in strictly under it? Cc1ccc(C(=O)Nc2ccc(CN3CCN(C)CC3)c(C(F)(F)F)c2)cc1C#Cc1cnc2cccnn12
Response line: condition met

Prompt line: Lab note: GI50, drug alone threshold 1000 nM. Does this compound come in strictly under it? CN[C@@H]1C[C@H]2O[C@@](C)([C@@H]1OC)n1c3ccccc3c3c4c(c5c6ccccc6n2c5c31)C(=O)NC4
Response line: condition met

Prompt line: Lab note: GI50, drug alone threshold 1000 nM. Does this compound come in strictly under it? Cc1cc2c(F)c(Oc3ncnn4cc(OC[C@@H](C)OC(=O)[C@H](C)N)c(C)c34)ccc2[nH]1
Response line: condition not met

Prompt line: Lab note: GI50, drug alone threshold 1000 nM. Does this compound come in strictly under it? c1ccc2c(-c3cnn4cc(-c5ccc(N6CCNCC6)cc5)cnc34)ccnc2c1
Response line: condition not met

Prompt line: Lab note: GI50, drug alone threshold 1000 nM. Does this compound come in strictly under it? Nc1ncnc2c1c(-c1cccc(OCc3ccccc3)c1)cn2[C@H]1C[C@H](CN2CCCC2)C1
Response line: condition not met

Prompt line: Lab note: GI50, drug alone threshold 1000 nM. Does this compound come in strictly under it? CC(C)CC(=O)Nc1n[nH]c2c1CN(C(=O)C1CCN(C)CC1)C2(C)C
Response line: condition not met

Prompt line: Lab note: GI50, drug alone threshold 1000 nM. Does this compound come in strictly under it? S=C(NCc1ccc2c(c1)OCO2)N1CCN(c2ncnc3c2oc2ccccc23)CC1
Response line: condition not met
